Items are presented alongside their recorded Vesicle KP, DMPC (MST).
experiment: Label-free MST, peptide binding to 100 nm vesicles
condition-summary: partition coefficient from initial fluorescence on MST instrument, hyperbolic fit after removal of deviant points, 2500 nM AMP, TRIS pH 7.4; ± SD of triplicate fits; judged unreliable by authors
Non-standard residues stand in square brackets, D forms with d. Residues, ends and D or L forms follow the SMILES beside them.

// solved cases for Vesicle KP, DMPC (MST) follow
molecule: NCCCC[C@@H]1NC(=O)[C@H](CCCCN)NC(=O)[C@H](Cc2c[nH]c3ccccc23)NC(=O)[C@H](Cc2c[nH]c3ccccc23)NC(=O)[C@H](Cc2c[nH]c3ccccc23)NC(=O)[C@H](CCCCN)NC1=O [compound 3] (cyclo(WWWKKK))
result: 2.55 ± 0.89 × 10^3
--
molecule: CC(C)C[C@@H]1NC(=O)[C@@H](CCCNC(=N)N)NC(=O)[C@H](CCCCN)NC(=O)[C@H](CC(N)=O)NC(=O)[C@@H](Cc2c[nH]c3ccccc23)NC(=O)[C@H](Cc2c[nH]c3ccccc23)NC1=O [compound 5] (cyclo(LW[dW]NK[dR]))
result: 3.10 ± 2.17 × 10^3

Query block: Return reported Vesicle KP, DMPC (MST). Input molecule: N=C(N)NCCC[C@@H]1NC(=O)[C@H](CCCNC(=N)N)NC(=O)[C@H](Cc2c[nH]c3ccccc23)NC(=O)[C@H](Cc2c[nH]c3ccccc23)NC(=O)[C@H](Cc2c[nH]c3ccccc23)NC(=O)[C@H](CCCNC(=N)N)NC1=O [compound 1] (cyclo(WWWRRR))
Result block: 7.24 ± 1.73 × 10^3

Query block: Return reported Vesicle KP, DMPC (MST). Input molecule: NCCCC[C@@H]1NC(=O)[C@H](Cc2c[nH]c3ccccc23)NC(=O)[C@H](CCCCN)NC(=O)[C@H](Cc2c[nH]c3ccccc23)NC(=O)[C@H](CCCCN)NC(=O)[C@H](Cc2c[nH]c3ccccc23)NC1=O [compound 4] (cyclo(WKWKWK))
Result block: 8.56 ± 7.41 × 10^3

Query block: Return reported Vesicle KP, DMPC (MST). Input molecule: N=C(N)NCCC[C@@H]1NC(=O)[C@H](Cc2c[nH]c3ccccc23)NC(=O)[C@H](CCCNC(=N)N)NC(=O)[C@H](Cc2c[nH]c3ccccc23)NC(=O)[C@H](CCCNC(=N)N)NC(=O)[C@H](Cc2c[nH]c3ccccc23)NC1=O [compound 2] (cyclo(WRWRWR))
Result block: 7.08 ± 2.32 × 10^3
